System: Armyworms
Assay Notes: Test of insecticidal activity against armyworms (leaf immersion)
Details: 600 mg/kg, 3-4 days
# label = Y if Mortalities (%) Armyworms < 20% else N

Example cases with answers are listed next.
# Structure String, Class Name
measured = [
    ("CC1=NNC(=O)N(NS(=O)(=O)c2ccc(Br)cc2)C1", "N"),
    ("CC1=NNC(=O)N(NS(C)(=O)=O)C1", "Y"),
    ("CC1=NNC(=O)N(NS(=O)(=O)c2ccc(Cl)cc2)C1", "N"),
    ("CC1=NNC(=O)N(NS(=O)(=O)c2ccc3c(c2)CCO3)C1", "Y"),
    ("CC1=NNC(=O)N(NS(=O)(=O)Cc2ccccc2)C1", "Y"),
]

-- ask Determine whether this compound shows Mortalities (%) Armyworms lower than 20% (ties excluded): CC1=NNC(=O)N(NS(=O)(=O)c2ccc(C)cc2)C1
-- reply Y

-- ask Please state whether Mortalities (%) Armyworms is below 20% for CCS(=O)(=O)N(N1CC(C)=NNC1=O)S(=O)(=O)CC
-- reply Y

-- ask Input CC1=NNC(=O)N(NS(=O)(=O)c2ccccc2C)C1 ; condition: Mortalities (%) Armyworms strictly below 20%. Does it hold?
-- reply N

-- ask Does CC1=NNC(=O)N(N(S(=O)(=O)c2ccccc2)S(=O)(=O)c2ccccc2)C1 have Mortalities (%) Armyworms strictly under 20%?
-- reply N

-- ask I'd appreciate it if you could check whether CC1=NNC(=O)N(N(S(=O)(=O)c2ccc(C)cc2)S(=O)(=O)c2ccc(C)cc2)C1 has Mortalities (%) Armyworms smaller than 20%.
-- reply Y

-- ask Mortalities (%) Armyworms strictly < 20% for this compound? CC1=NNC(=O)N(NS(=O)(=O)c2ccc(C(C)(C)C)cc2)C1
-- reply N
